System: U87 MG/PER2-dLuc cells
assay-info: multiparametric high-content screening (HCS) assay
Format: cell-based, human
measurement-conditions: 72-h treatment, Fluo-4 AM
Method: A multiparametric analysis of compound toxicity at the level of individual cells was conducted using the HCS method established by Tolosa et al. ([2012]) to assess the liver toxicity of chemicals and drugs. […] After incubation for 1 h, the cells were imaged using an IN Cell Analyzer 6000 (GE Healthcare Life Sciences) and analyzed using IN Cell Miner HCM. The data were analyzed with IN Cell Analyzer 6000 Analysis Software. Nuclear morphological alterations were assessed based on the Hoechst staining. […]
Marks after values point to notes of the source that are not given here.
Collected LOAEL CA (calcium ion) values appear next to each entry.

[
  {
    "compound": "C[n+]1ccc(-c2ccccc2)cc1",
    "LOAEL CA (calcium ion)": "0.63 µM"
  },
  {
    "compound": "[CH3][Hg][Cl] [MHg, methylmercury (II) chloride]",
    "LOAEL CA (calcium ion)": "0.031** µM"
  },
  {
    "compound": "Clc1ccc(C(c2ccc(Cl)cc2)C(Cl)(Cl)Cl)cc1",
    "LOAEL CA (calcium ion)": "0.47** µM"
  },
  {
    "compound": "O=C(O)c1cn(C2CC2)c2cc(N3CCNCC3)c(F)cc2c1=O",
    "LOAEL CA (calcium ion)": "0.94** µM"
  },
  {
    "compound": "CCOP(=S)(OCC)Oc1nc(Cl)c(Cl)cc1Cl",
    "LOAEL CA (calcium ion)": "0.7** µM"
  }
]

* * *

System: U87 MG/PER2-dLuc cells
assay-info: cells
Format: cell-based, human
measurement-conditions: 72 h treatment
Outcome: satisfied for IC15 (MTT, Table 1) of at least 20 µM; not satisfied for anything lower.

[
  {
    "molecule": "[CH3][Hg][Cl] [MHg, methylmercury (II) chloride]",
    "class-label": "not satisfied"
  },
  {
    "molecule": "C[n+]1ccc(-c2ccccc2)cc1",
    "class-label": "satisfied"
  },
  {
    "molecule": "Clc1ccc(C(c2ccc(Cl)cc2)C(Cl)(Cl)Cl)cc1",
    "class-label": "not satisfied"
  },
  {
    "molecule": "CCOP(=S)(OCC)Oc1nc(Cl)c(Cl)cc1Cl",
    "class-label": "not satisfied"
  }
]

* * *

Measured concentration that increased intracellular Ca2+ levels, listed per entry.
System: U87 MG/PER2-dLuc cells
assay-info: multiparametric high-content screening (HCS) assay
Type: cell-based, human
measurement-conditions: 72-h timepoint
readout: concentration that increased intracellular Ca2+ levels

[
  {
    "line-notation": "Clc1ccc(C(c2ccc(Cl)cc2)C(Cl)(Cl)Cl)cc1",
    "observed-value": "> 470 nM"
  },
  {
    "line-notation": "O=C(O)c1cn(C2CC2)c2cc(N3CCNCC3)c(F)cc2c1=O",
    "observed-value": "> 940 nM"
  },
  {
    "line-notation": "C[n+]1ccc(-c2ccccc2)cc1",
    "observed-value": "630 nM"
  }
]

* * *

Tested on: U87 MG/PER2-dLuc cells
assay-info: cells
Type: cell-based, human
measurement-conditions: 72 h treatment, read-out: IC50 (cell viability, MTT)
pIC50: −log10 of the molar value.
readout: pIC50

[
  {
    "compound": "[CH3][Hg][Cl] [MHg, methylmercury (II) chloride]",
    "readout": "pIC50",
    "observed-value": 5.40
  }
]
